Form field: IC50 (one value per entry).
- Assay target: Tolloid-like protein 1 (Homo sapiens, UniProt O43897, I156V/N221S/V284A)
- Sequence (O43897 148-1013 I156V/N221S/V284A limits assumed): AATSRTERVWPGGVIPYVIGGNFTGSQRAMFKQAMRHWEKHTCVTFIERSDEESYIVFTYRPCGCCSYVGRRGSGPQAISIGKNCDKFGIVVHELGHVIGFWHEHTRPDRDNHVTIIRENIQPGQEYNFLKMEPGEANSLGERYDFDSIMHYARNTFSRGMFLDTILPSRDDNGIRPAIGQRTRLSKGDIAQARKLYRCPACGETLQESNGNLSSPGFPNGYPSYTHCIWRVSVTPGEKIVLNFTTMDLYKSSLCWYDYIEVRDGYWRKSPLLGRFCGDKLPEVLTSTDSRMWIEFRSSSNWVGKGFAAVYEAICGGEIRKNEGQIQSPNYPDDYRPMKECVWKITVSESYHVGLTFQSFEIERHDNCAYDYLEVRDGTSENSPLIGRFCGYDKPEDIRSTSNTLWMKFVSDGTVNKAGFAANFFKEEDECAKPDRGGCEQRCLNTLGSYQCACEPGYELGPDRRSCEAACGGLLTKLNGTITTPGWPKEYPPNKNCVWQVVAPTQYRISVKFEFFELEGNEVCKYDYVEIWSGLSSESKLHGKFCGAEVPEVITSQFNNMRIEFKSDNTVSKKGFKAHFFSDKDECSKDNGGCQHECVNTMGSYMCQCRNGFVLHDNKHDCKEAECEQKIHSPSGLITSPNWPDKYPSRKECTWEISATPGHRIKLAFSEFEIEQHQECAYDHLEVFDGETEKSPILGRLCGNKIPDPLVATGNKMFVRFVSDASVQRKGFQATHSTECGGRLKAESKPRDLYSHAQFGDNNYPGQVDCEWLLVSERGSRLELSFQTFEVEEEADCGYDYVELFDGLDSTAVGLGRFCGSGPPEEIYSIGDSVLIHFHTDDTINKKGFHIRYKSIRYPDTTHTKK
- Assay protocol: Inhibition of recombinant human TLL1 I156V/N221S/V284A mutant expressed in CHOE1A cells pre-incubated for 10 mins before promyostatin peptide substrate addition and measured after 60 mins by FRET based assay

Before answering, review these 8 worked examples.
Cpd smiles: CCCCC[C@@H](C(=O)NCNC(=O)c1ccc(-c2ccc(C(=O)OCC)cc2)o1)[C@@H](CC)N(O)C=O
Observed result: 251 to 398 nM
--
Cpd smiles: CCCCC[C@@H](C(=O)NCNC(=O)c1ccc(-c2ccc(C(=O)N[C@@H](CC(=O)OC(C)(C)C)C(=O)OC(C)(C)C)c(OCC)c2)o1)[C@@H](CC)N(O)C=O
Observed result: 251 to 398 nM
--
Cpd smiles: CCCCC[C@@H](C(=O)NCNC(=O)c1ccc(-c2cc(OCC)cc(P(=O)(OCOC(C)=O)OCOC(C)=O)c2)o1)[C@@H](CC)N(O)C=O
Observed result: 251 to 398 nM
--
Cpd smiles: CCCCC[C@@H](C(=O)NCNC(=O)c1ccc(-c2ccc(C(=O)N[C@@H](CC(=O)OCC)C(=O)OCC)c(OCC)c2)o1)[C@@H](CC)N(O)C=O
Observed result: 251 to 398 nM
--
Cpd smiles: CCCCC[C@@H](C(=O)NCNC(=O)c1ccc(-c2cc(OCC)cc(P(=O)(O)Oc3ccccc3)c2)o1)[C@@H](CC)N(O)C=O
Observed result: < 251 nM
--
Cpd smiles: CCCCC[C@@H](C(=O)NCNC(=O)c1ccc(-c2ccc(C(=O)N[C@@H](CC(=O)O)C(=O)OCOC(=O)c3ccccc3)c(OCC)c2)o1)[C@@H](CC)N(O)C=O
Observed result: < 251 nM
--
Cpd smiles: CCCCC[C@@H](C(=O)NCNC(=O)c1ccc(-c2ccc(C(=O)N[C@@H](CC(=O)O)C(=O)OC(C)(C)C)c(OCC)c2)o1)[C@@H](CC)N(O)C=O
Observed result: 251 to 398 nM
--
Cpd smiles: CCCCC[C@@H](C(=O)NCNC(=O)c1ccc(-c2ccc(C(=O)N[C@@H](CC(=O)OC)C(=O)OC)c(OCC(=O)OC)c2)o1)[C@@H](CC)N(O)C=O
Observed result: 251 to 398 nM

Which IC50 value is on record for CCCCC[C@@H](C(=O)NCNC(=O)c1ccc(-c2ccc(C(=O)OCCCC)cc2)o1)[C@@H](CC)N(O)C=O ?
251 to 398 nM

Field entry: CCCCC[C@@H](C(=O)NCNC(=O)c1ccc(-c2ccc(C(=O)N[C@@H](CC(=O)O)C(=O)OCC)c(OCC)c2)o1)[C@@H](CC)N(O)C=O
251 to 398 nM

Field entry: CCCCC[C@@H](C(=O)NCNC(=O)c1ccc(-c2cc(OCC)cc(P(=O)(O)OCOC(=O)OC(C)C)c2)o1)[C@@H](CC)N(O)C=O
< 251 nM

Field entry: CCCCC[C@@H](C(=O)NCNC(=O)c1ccc(-c2ccc(C(=O)OCCN(C)C)cc2)o1)[C@@H](CC)N(O)C=O
251 to 398 nM

====

- Assay protocol: Drug metabolism in heparinized pooled human plasma at pH 7.5 assessed as formation of (3-ethoxy-5-(5-((((R)-2-((R)-1-(N-hydroxyformamido)propyl)heptanamido)methyl)carbamoyl) furan-2-yl)phenyl)phosphonic acid at 100 to 2000 ng/ml incubated up to 4 or 24 hrs by LC-MS/MS analysis
- Format: ADME, cell-free
- Condition parameters: pH 7.5, 24 h
Value kind: Drug metabolism

Cpd smiles: CCCCC[C@@H](C(=O)NCNC(=O)c1ccc(-c2cc(OCC)cc(P(=O)(O)O)c2)o1)[C@@H](CC)N(C=O)OC(=O)c1ccccc1
Observed result: Metabolite_Detected
--
Cpd smiles: CCCCC[C@@H](C(=O)NCNC(=O)c1ccc(-c2cc(OCC)cc(P(=O)(O)O)c2)o1)[C@@H](CC)N(C=O)OC(=O)c1ccc(F)cc1C(C)C
Observed result: Metabolite_Detected
--
Cpd smiles: CCCCC[C@@H](C(=O)NCNC(=O)c1ccc(-c2cc(OCC)cc(P(=O)(O)O)c2)o1)[C@@H](CC)N(C=O)OC(=O)c1c(C)cccc1OCOP(=O)(O)O.N.N.N.N
Observed result: Metabolite_Detected

====

- Assay protocol: Drug metabolism in heparinized pooled human plasma at pH 7.5 assessed as formation of (S)-2-(2-ethoxy-4-(5-((((R)-2-((R)-1-(N-hydroxyformamido)propyl)heptanamido)methyl) carbamoyl)furan-2-yl)benzamido)succinic acid at 100 to 2000 ng/ml incubated up to 4 or 24 hrs by LC-MS/MS analysis
- Type: ADME, cell-free
- Condition parameters: pH 7.5, 24 h

Cpd smiles: CCCCC[C@@H](C(=O)NCNC(=O)c1ccc(-c2ccc(C(=O)N[C@@H](CC(=O)O)C(=O)O)c(OCC)c2)o1)[C@@H](CC)N(C=O)OC(=O)C1CCNCC1.O=C(O)C(F)(F)F
Drug metabolism: Metabolite_Detected

Cpd smiles: CCCCC[C@@H](C(=O)NCNC(=O)c1ccc(-c2ccc(C(=O)N[C@@H](CC(=O)O)C(=O)O)c(OCC)c2)o1)[C@@H](CC)N(C=O)OC(=O)c1ccc(OCCOCCO)cc1
Drug metabolism: Metabolite_Detected

Cpd smiles: CCCCC[C@@H](C(=O)NCNC(=O)c1ccc(-c2ccc(C(=O)N[C@@H](CC(=O)O)C(=O)O)c(OCC)c2)o1)[C@@H](CC)N(C=O)OC(=O)c1ccc(N(C)S(C)(=O)=O)cc1
Drug metabolism: Metabolite_Detected

====

- Assay protocol: Drug metabolism in heparinized pooled human plasma at pH 7.5 assessed as formation of (S)-2-(2-(carboxymethoxy)-4-(5-((((R)-2-((R)-1-(N-hydroxyformamido)propyl)heptanamido)methyl)carbamoyl)furan-2-yl)benzamido)succinic acid at 100 to 2000 ng/ml incubated up to 4 or 24 hrs by LC-MS/MS analysis
- Assay type: ADME, cell-free
- Condition parameters: pH 7.5, 24 h

Cpd smiles: CCCCC[C@@H](C(=O)NCNC(=O)c1ccc(-c2ccc(C(=O)N[C@@H](CC(=O)O)C(=O)O)c(OCC(=O)O)c2)o1)[C@@H](CC)N(C=O)OC(=O)c1cccc2ccccc12
Drug metabolism: Metabolite_Detected
--
Cpd smiles: CCCCC[C@@H](C(=O)NCNC(=O)c1ccc(-c2ccc(C(=O)N[C@@H](CC(=O)O)C(=O)O)c(OCC(=O)O)c2)o1)[C@@H](CC)N(C=O)OC(=O)C(CCC)CCC
Drug metabolism: Metabolite_Detected
--
Cpd smiles: CCCCC[C@@H](C(=O)NCNC(=O)c1ccc(-c2ccc(C(=O)N[C@@H](CC(=O)O)C(=O)O)c(OCC(=O)O)c2)o1)[C@@H](CC)N(C=O)OC(=O)c1ccc(CN2CCOCC2)cc1
Drug metabolism: Metabolite_Detected

====

- Assay protocol: Drug metabolism in heparinized pooled human plasma at pH 7.5 assessed as formation of (S)-2-(2-ethoxy-4-(5-((((R)-2-((R)-1-(N-hydroxyformamido)propyl)heptanamido)methyl) carbamoyl)furan-2-yl)benzamido)succinic acid at 100 to 2000 ng/ml incubated up to 4 or 24 hrs by LC-MS/MS analysis
- Assay type: ADME, cell-free
- Condition parameters: pH 7.5, 24 h
Value kind: Drug metabolism

Cpd smiles: CCCCC[C@@H](C(=O)NCNC(=O)c1ccc(-c2ccc(C(=O)N[C@@H](CC(=O)O)C(=O)O)c(OCC)c2)o1)[C@@H](CC)N(C=O)OC(=O)NC(C)(C)c1ccccc1
Drug metabolism: Metabolite_Detected
--
Cpd smiles: CCCCC[C@@H](C(=O)NCNC(=O)c1ccc(-c2ccc(C(=O)N[C@@H](CC(=O)O)C(=O)O)c(OCC)c2)o1)[C@@H](CC)N(C=O)OC(=O)c1c(C)cccc1F
Drug metabolism: Metabolite_Detected
--
Cpd smiles: CCCCC[C@@H](C(=O)NCNC(=O)c1ccc(-c2ccc(C(=O)N[C@@H](CC(=O)O)C(=O)O)c(OCC)c2)o1)[C@@H](CC)N(C=O)OC(=O)c1ccc([N+](=O)[O-])cc1C
Drug metabolism: Metabolite_Detected
--
Cpd smiles: CCCCC[C@@H](C(=O)NCNC(=O)c1ccc(-c2ccc(C(=O)N[C@@H](CC(=O)O)C(=O)O)c(OCC)c2)o1)[C@@H](CC)N(C=O)OC(=O)c1ccc(-n2cccc2)cc1.N.N
Drug metabolism: Metabolite_Detected

// below: Drug metabolism requested for another molecule
Which Drug metabolism value is on record for CCCCC[C@@H](C(=O)NCNC(=O)c1ccc(-c2ccc(C(=O)N[C@@H](CC(=O)O)C(=O)O)c(OCC)c2)o1)[C@@H](CC)N(C=O)OC(=O)OC(C)(C)C ?
Metabolite_Detected

====

Form field: IC50 (one value per entry).
- Assay target: Tolloid-like protein 2 (Homo sapiens)
- Sequence (Q9Y6L7 whole entry, the tested form may be a part): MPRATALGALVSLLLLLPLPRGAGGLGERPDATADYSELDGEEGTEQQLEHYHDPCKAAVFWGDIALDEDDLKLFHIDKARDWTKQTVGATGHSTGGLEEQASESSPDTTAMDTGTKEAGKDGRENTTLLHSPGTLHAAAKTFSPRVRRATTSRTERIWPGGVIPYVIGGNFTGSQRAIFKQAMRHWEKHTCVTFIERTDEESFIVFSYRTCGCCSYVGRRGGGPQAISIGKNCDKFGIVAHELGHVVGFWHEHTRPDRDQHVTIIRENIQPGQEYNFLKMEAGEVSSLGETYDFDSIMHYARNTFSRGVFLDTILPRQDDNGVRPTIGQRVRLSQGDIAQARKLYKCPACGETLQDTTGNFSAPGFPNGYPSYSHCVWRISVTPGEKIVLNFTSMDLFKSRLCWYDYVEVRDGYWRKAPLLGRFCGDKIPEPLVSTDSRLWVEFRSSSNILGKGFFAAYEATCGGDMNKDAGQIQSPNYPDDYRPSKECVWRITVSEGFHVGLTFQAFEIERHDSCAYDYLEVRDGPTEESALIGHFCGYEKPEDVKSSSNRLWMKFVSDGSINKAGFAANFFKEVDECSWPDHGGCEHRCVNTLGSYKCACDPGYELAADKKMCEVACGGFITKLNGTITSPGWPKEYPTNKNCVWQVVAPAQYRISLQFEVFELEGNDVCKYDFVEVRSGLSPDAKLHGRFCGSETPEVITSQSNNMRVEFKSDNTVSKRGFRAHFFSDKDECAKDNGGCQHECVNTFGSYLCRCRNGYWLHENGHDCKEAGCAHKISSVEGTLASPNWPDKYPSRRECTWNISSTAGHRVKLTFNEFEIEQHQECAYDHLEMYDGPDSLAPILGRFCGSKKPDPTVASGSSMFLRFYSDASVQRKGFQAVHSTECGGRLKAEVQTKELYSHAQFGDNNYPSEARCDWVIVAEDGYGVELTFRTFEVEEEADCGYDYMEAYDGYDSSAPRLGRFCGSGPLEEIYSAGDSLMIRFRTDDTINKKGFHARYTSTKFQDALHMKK
- Assay protocol: Inhibition of C-terminal Avi-6x-His epitope tagged and N-terminal human RAGE signal sequence tagged recombinant human TLL2 (26 to 1015 amino acids) expressed in CHOE1A cells incubated for 60 mins with promyostatin peptide substrate by FRET based assay

Cpd smiles: CCCCC[C@@H](C(=O)NCNC(=O)c1ccc(-c2ccc(C(=O)OCC)cc2)o1)[C@@H](CC)N(O)C=O
Value kind: IC50
Observed result: 398 to 794 nM
--
Cpd smiles: CCCCC[C@@H](C(=O)NCNC(=O)c1ccc(-c2ccc(C(=O)N[C@@H](CC(=O)OC(C)(C)C)C(=O)OC(C)(C)C)c(OCC)c2)o1)[C@@H](CC)N(O)C=O
Value kind: IC50
Observed result: 398 to 794 nM
--
Cpd smiles: CCCCC[C@@H](C(=O)NCNC(=O)c1ccc(-c2ccc(C(=O)OCCN(C)C)cc2)o1)[C@@H](CC)N(O)C=O
Value kind: IC50
Observed result: 398 to 794 nM
--
Cpd smiles: CCCCC[C@@H](C(=O)NCNC(=O)c1ccc(-c2ccc(C(=O)N[C@@H](CC(=O)O)C(=O)OC(C)(C)C)c(OCC)c2)o1)[C@@H](CC)N(O)C=O
Value kind: IC50
Observed result: 398 to 794 nM
--
Cpd smiles: CCCCC[C@@H](C(=O)NCNC(=O)c1ccc(-c2ccc(C(=O)N[C@@H](CC(=O)OC)C(=O)OC)c(OCC(=O)OC)c2)o1)[C@@H](CC)N(O)C=O
Value kind: IC50
Observed result: 398 to 794 nM
--
Cpd smiles: CCCCC[C@@H](C(=O)NCNC(=O)c1ccc(-c2cc(OCC)cc(P(=O)(OCOC(C)=O)OCOC(C)=O)c2)o1)[C@@H](CC)N(O)C=O
Value kind: IC50
Observed result: 398 to 794 nM
--
Cpd smiles: CCCCC[C@@H](C(=O)NCNC(=O)c1ccc(-c2ccc(C(=O)OCCCC)cc2)o1)[C@@H](CC)N(O)C=O
Value kind: IC50
Observed result: 398 to 794 nM
--
Cpd smiles: CCCCC[C@@H](C(=O)NCNC(=O)c1ccc(-c2ccc(C(=O)N[C@@H](CC(=O)O)C(=O)OCC)c(OCC)c2)o1)[C@@H](CC)N(O)C=O
Value kind: IC50
Observed result: 398 to 794 nM

Which IC50 value is on record for CCCCC[C@@H](C(=O)NCNC(=O)c1ccc(-c2cc(OCC)cc(P(=O)(O)Oc3ccccc3)c2)o1)[C@@H](CC)N(O)C=O ?
< 398 nM

Field entry: CCCCC[C@@H](C(=O)NCNC(=O)c1ccc(-c2cc(OCC)cc(P(=O)(O)OCOC(=O)OC(C)C)c2)o1)[C@@H](CC)N(O)C=O
< 398 nM

Field entry: CCCCC[C@@H](C(=O)NCNC(=O)c1ccc(-c2ccc(C(=O)N[C@@H](CC(=O)O)C(=O)OCOC(=O)c3ccccc3)c(OCC)c2)o1)[C@@H](CC)N(O)C=O
< 398 nM

Field entry: CCCCC[C@@H](C(=O)NCNC(=O)c1ccc(-c2ccc(C(=O)N[C@@H](CC(=O)OCC)C(=O)OCC)c(OCC)c2)o1)[C@@H](CC)N(O)C=O
398 to 794 nM
